meta.source: PubChem BioAssay

test_method_notes: E. coli DRC41 culture turbidity changes, primary screen, E. coli filamentation inducer project, strain DRC41, OD650, 48 h (AID 1152);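 note: E. coli MC1000 strain DRC41 lacking acrAB efflux pump and sulA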
run_parameters: E. coli DRC41 (acrAB sulA), higher = more signal, called active from +8 up or from −8 down
Item-by-item account of z-score
Write the value as a bare number.

Example results:
>  <compound>
C=C(COC)C(=O)CC[C@@H](OC(=O)c1cccnc1)c1ccc(OCCO)cc1

>  <z-score>
-0.717

$$$$
>  <compound>
Cc1ccc(S[C@]2(C(=O)NCCCN(C)C)CC(=O)N(C3CCCCC3)[C@@H]2c2ccc(CO)cc2)cc1

>  <z-score>
0.344

$$$$
>  <compound>
O=C1OCC=C[C@H]2OC34C=CCN(Cc5ccccc5)C(=O)[C@H]3N(CCCCCCO)C(=O)[C@@H]4[C@@H]12 (some centres undefined)

>  <z-score>
2.56

$$$$
>  <compound>
CCOC(=O)C1CCCCN1 (centres undefined)

>  <z-score>
-0.641

$$$$
>  <compound>
CN(C)CCCNC(=O)[C@@]1(C)c2ccccc2C(=O)N(Cc2ccccc2)[C@H]1c1ccc(CO)cc1

>  <z-score>
-0.074

$$$$

**Query** So what's the measured z-score for this one? Cc1cc(C)c(C(O)C2C=CC3C(=O)N(c4ccccc4)C(=O)C3N2Nc2ccc(C(C)C)cc2)c(C)c1 (centres undefined)
**Result** -1.53

**Query** So what's the measured z-score for this one? `O=C1O[C@H](c2ccccc2)[C@H](c2ccccc2)N2[C@H]1[C@@H](C(=O)NC[C@H](O)c1ccccc1)[C@]1(C(=O)Nc3ccc(C#CCCO)cc31)[C@H]2c1ccc(OCCO)cc1`
**Result** 0.0129

**Query** So what's the measured z-score for this one? `CCCCCCc1nc(C2CC2)cc2c1[Si](C(C)C)(C(C)C)O[C@H]2c1ccccc1`
**Result** -1.27

**Query** So what's the measured z-score for this one? `C=CCOC(=O)[C@H]1[C@@H]2C(=O)O[C@@H](c3ccccc3)[C@@H](c3ccccc3)N2[C@@H](c2ccc(OCCOC(=O)[C@H]3C[C@H]4C(=O)N[C@@H](CC(C)C)C(=O)N4[C@H]3c3cccc(OCCO)c3)cc2)[C@]12C(=O)Nc1ccc(I)cc12`
**Result** -0.811

**Query** So what's the measured z-score for this one? `O=C1O[C@@H](c2ccccc2)[C@@H](c2ccccc2)N2[C@@H](c3ccc(O)cc3)[C@]3(C(=O)Nc4ccc(C#CC5=CCCCC5)cc43)[C@@H](C(=O)NC[C@H](O)c3ccccc3)[C@H]12`
**Result** 1.22

**Query** So what's the measured z-score for this one? `[N-]=[N+]=NCc1ccccc1C[C@@]1(C(=O)NCc2ccccc2)N=C(c2ccc(OCCCO)cc2)O[C@@H]1c1ccccc1N=[N+]=[N-]`
**Result** -0.0632

**Query** So what's the measured z-score for this one? `CCCCCCc1nc(-c2cc(C)c(OC)c(C)c2)c(C)c2c1[Si](C(C)C)(C(C)C)OC2`
**Result** 0.03

**Query** So what's the measured z-score for this one? `O=c1n(-c2ccccc2)c(=O)n2n1CC(COc1ccccc1)=C([C@H](O)CCc1ccccc1)[C@@H]2CO`
**Result** 2.63

**Query** So what's the measured z-score for this one? `COC(=O)[C@H](Cc1ccccc1)N1CC(/C=C/C2CC2)=C[C@H]1[C@H](O)Cc1ccccc1`
**Result** -0.555

**Query** So what's the measured z-score for this one? COc1cc(OC)c(C(O)C2C=CC3C(=O)N(c4ccccc4)C(=O)C3N2Nc2ccccc2)cc1Br (centres undefined)
**Result** -0.789

**Query** So what's the measured z-score for this one? `COCCCNC(=O)[C@@]1(Cc2ccccc2N=[N+]=[N-])COC(c2ccc(OCCCO)cc2)=N1`
**Result** 1.21

**Query** So what's the measured z-score for this one? CCOc1cc(C(O)C2C=CC3C(=O)N(c4ccccc4)C(=O)C3N2Nc2ccc(C#N)cc2)ccc1O (centres undefined)
**Result** -1.17

**Query** So what's the measured z-score for this one? `C=CCOC(=O)[C@H]1[C@@H]2C(=O)O[C@@H](c3ccccc3)[C@@H](c3ccccc3)N2[C@@H](c2ccc(OCCOC(=O)[C@@H]3C[C@@H]4C(=O)N[C@@H](CCCCN(C)C)C(=O)N4[C@@H]3c3ccc(O)cc3)cc2)[C@]12C(=O)Nc1ccccc12`
**Result** -1.53

**Query** So what's the measured z-score for this one? CC(C)(C)N1CC=CC23O[C@@H]4C=CCOC(=O)[C@@H]4[C@H]2C(=O)N(CCCCCCO)[C@@H]3C1=O (some centres undefined)
**Result** -0.348
